Reference source for all entries: ChEMBL document CHEMBL1127553

Test system: CHO
Test: The sensitizing capacity for colchicine treatment of parental (PAR)CHO cells at concentration 1.0 (mg/L)
Type: functional, Cricetulus griseus
For each entry below, report its Activity value.
Numbers only.

1) CC[C@H](C)[C@H]1C(=O)N(C)[C@@H]([C@@H](C)CC)C(=O)NCC(=O)N(C)[C@@H](C(C)C)C(=O)N[C@@H](Cc2ccc(OC)cc2)C(=O)O[C@H](C)C(=O)N2CCCC[C@H]2C(=O)N(C)[C@@H](C(C)C)C(=O)N[C@@H](C(C)C)C(=O)N(C)[C@H](CC(=O)N2CCC[C@H]2C(=O)OC(C)(C)C)C(=O)N1C
8.2

--- query ---
Please fill in: Activity reported for `CC[C@H](C)[C@H]1C(=O)NCC(=O)N(C)[C@@H](C(C)C)C(=O)N[C@@H](Cc2ccc(OC)cc2)C(=O)O[C@H](C)C(=O)N2CCCC[C@H]2C(=O)N(C)[C@@H](C(C)C)C(=O)N[C@@H](C(C)C)C(=O)N(C)[C@@H](CC(=O)NCc2ccco2)C(=O)N(C)[C@@H]([C@@H](C)CC)C(=O)N1C` = 10
